# Test system: HL-60(TB) leukemia
# Method summary: NCI-60 one-dose screen, 48 h
# Experimental parameters: 10 µM unless noted
This is part of a sample that, as a whole, favours compounds with a hit. Of some 83,000 tested, about 20% had one in any assay. The source made the active and inactive calls. Rule for the calls: active = growth percent below 10; inactive = the rest.
Outcome codes: true (1) (active), false (0) (inactive)

| Compound | Label |
| --- | --- |
| COc1ccc(CN2[C@H](C(=O)NCCCCCCC(=O)NO)Cc3c([nH]c4ccccc34)[C@H]2C2CC2)cc1 | true (1) |
| COc1ccc(NC(=O)Nc2ccc(OCC(=O)N=Nc3c(O)[nH]c4ccc([N+](=O)[O-])cc34)cc2)cc1 | false (0) |
| O=C1NC2C=CC=CC2/C1=C1/SC(=S)N(C2CC(=O)N(c3ccc(Br)cc3)C2=O)C1=O (stereo not given) | false (0) |
| O=C(CNc1nc(-c2ccccc2)cs1)Nc1ccc([N+](=O)[O-])cc1Cl | false (0) |
| CC[C@]12C=CCN3CC[C@@]4(c5ccc(OC)cc5N(C)[C@H]4[C@@](O)(C(=O)OC)[C@@H]1OC(=O)CCC[P+](c1ccc(C)cc1)(c1ccc(C)cc1)c1ccc(C)cc1)[C@@H]32 | true (1) |
| CCOc1ccc2ncc(C#Cc3cncc(C(=O)Nc4ccc(CN5CCN(C)CC5)c(C(F)(F)F)c4)c3)n2n1 | true (1) |
| COc1cc2cc(C(=O)N3C[C@@H](CCl)c4c3cc(OC(=O)N3CCN(C)[C@@H]5CSSC[C@H]53)c3ccccc43)[nH]c2c(OC)c1OC | true (1) |
| Cc1cc(C(NC(=O)CCCCCNc2cccc3c2C(=O)N(C2CCC(=O)CC2=O)C3=O)c2cccc(N(C)C)c2)c(O)c2ncccc12 (stereo not given) | true (1) |
| O=Cc1cncc(-c2ccc3ncnc(N4CCc5cc(F)c(Cl)cc54)c3c2)c1 | false (0) |
| C#CCOc1cc(N(CC)CC)ccc1C(C(=O)NC(C)(C)C)N(C(=O)C1CCc2cc(F)ccc2O1)c1ccccc1F (stereo not given) | true (1) |
| O=C(O)c1ccc(-c2ccc(/C=N/NC(=O)c3[nH]c4ccc(Br)cc4c3-c3ccccc3)s2)cc1 | true (1) |
| COc1c2c(c(Br)c3c1C(CCc1ccccc1)N(C)CC3)OCO2 (stereo not given) | false (0) |
| OC(c1ccccc1)(c1ccccc1)C1CCN(c2ccc3nnc(Cl)n3n2)CC1 | true (1) |
| CN1C/C(=C\c2ccc(O)cc2O)c2[o+]c3cc(O)ccc3cc2C1 | false (0) |
| CC1=C(C(=O)OCc2ccccc2)C(c2cccc3ccccc23)n2c(nc3ccccc32)N1 (stereo not given) | true (1) |
| COc1cc2oc(-c3cccc(NC(=O)[C@H](CC(N)=O)NC(=O)OC(C)(C)C)c3)cc(=O)c2c(OC)c1OC | false (0) |
| COc1ccc2[nH]cc(/C=N/Nc3ccc(Br)cn3)c2c1 | true (1) |
| O=C(/C=C/c1ccc(-c2ccccc2)cc1)c1nc2ccccc2n1Cc1ccc(Br)cc1 | false (0) |
| COc1ccc(NC(=O)[C@H](C)N)cc1C(=O)Nc1cccc(C2CC(=O)c3c(cc(OC)c(OC)c3OC)O2)c1 (stereo not given in full) | false (0) |
| CCOC(=O)C1=C(N)N(c2ccc(C)cc2)C2=C(C(=O)CC(C)(C)C2)C1c1ccccc1OC (stereo not given) | false (0) |
| CN(CCO)c1oc(-c2ccccc2)nc1[P+](c1ccccc1)(c1ccccc1)c1ccccc1 | true (1) |
| C[C@H]1[C@@H](Oc2ccc(-c3cn(-c4ccnc5cc(Cl)ccc45)nn3)cc2)O[C@@H]2OC3(C)CC[C@H]4[C@H](C)CC[C@@H]1[C@@]24OO3 | true (1) |
| C=CCSc1nnc(-c2ccc(-c3nc4ccccc4[nH]3)cc2)o1 | false (0) |
| N#C/C(=C\c1ccc(N(c2ccccc2)c2ccccc2)cc1)C(N)=O | false (0) |
| COc1ccc(-c2nnc3c(/C=C/c4ccc(Br)cc4)nc4ccccc4n23)cc1 | true (1) |
| Nc1cc(-c2c[nH]c3ccc(F)cc23)nc2cc(-c3c[nH]c4ccccc34)nn12 | true (1) |
| COc1ccc(/C=C/c2nc3ccccc3nc2Nc2cccc(C)c2)cc1 | false (0) |
| S=C(Nc1ccc(OCc2nc3ccccc3[nH]2)cc1)NC1CCCCC1 | false (0) |
| Cc1ccc(S(=O)(=O)c2nc(S(=O)(=O)c3ccc(C)cc3)c(N3CCC(O)CC3)s2)cc1 | false (0) |
| O=C(O)Cn1c(O)c(/C=C2/C=c3cc4c(cc3=NC2=O)OCCO4)sc1=S | false (0) |
| CN(C)c1nc(NCCNS(=O)(=O)c2ccc(C(=O)/C=C/c3ccc(C(F)(F)F)cc3)cc2)nc(Nc2ccc(F)cc2)n1 | true (1) |
| CCCCCCCCc1ccc(S(=O)(=O)Nc2ccc(CC)cc2C(=O)O)cc1 | false (0) |
| COc1csc(/C=N/NC(=O)c2[nH]c3ccc(Br)cc3c2-c2ccccc2)c1 | true (1) |
| COC(=O)C(Cc1ccc(O)c(O)c1)NC(=O)C(CSC/C=C(\C)CCCC(C)CCCC(C)CCCC(C)C)NC(C)=O (stereo not given) | true (1) |
| CN(C)c1nc(NCCNS(=O)(=O)c2ccc(C3=Nc4c(N)nc(N)nc4NC(c4ccc(Cl)cc4)C3)cc2)nc(N2CCOCC2)n1 (stereo not given) | false (0) |
